# System: MYC
# method summary: In vitro transcription-translation (IVTT) assay, MYC reporter
# Assay type: biochemical
# condition label: IVTT assay, HeLa S3 lysate, MYC reporter, normalized sfGFP/mCherry ratio; half-log dilutions 30 μM-0.1 μM, 2 hrs at 30° C.
quantity measured: IC50

// IC50 lookup, key: `COc1ccc(C[C@H]2NC[C@H](O)[C@H]2OC(=O)NCc2ccnc(N3CCC3)c2)cc1`
< 10 µM

// IC50 lookup, key: `COc1ccc(C[C@H]2NC[C@H](O)[C@H]2OC(=O)N[C@H](C)c2ccccc2)cc1`
> 30 µM

// IC50 lookup, key: `O=C(NCC[C@H]1CC2(CC2)CN1)O[C@@H]1[C@@H](O)CN[C@@H]1Cc1ccc(-c2cnco2)cc1`
< 10 µM

// IC50 lookup, key: `O=C(NCC[C@@H]1CCNCC1(F)F)O[C@@H]1[C@@H](O)CN[C@@H]1Cc1ccc(-c2cnco2)cc1`
< 10 µM

// IC50 lookup, key: `COc1ccc(C[C@H]2NC[C@H](O)[C@H]2OC(=O)NCC[C@@H]2CCCCN2)cc1`
10 to 20 µM

// IC50 lookup, key: `O=C(NCc1cccc2c1CNC2)O[C@@H]1[C@@H](O)CN[C@@H]1Cc1ccc(C(F)F)cc1`
< 10 µM

// IC50 lookup, key: `COc1ccc(C[C@H]2NC[C@H](O)[C@H]2OC(=O)NCCn2cc[nH]c2=O)cc1`
20 to 30 µM

// IC50 lookup, key: `O=C(NCc1ccc2c(c1)CCNC2)O[C@@H]1[C@@H](O)CN[C@@H]1Cc1ccc(-c2ccc(C(F)(F)F)cc2)cc1`
> 30 µM

----------
# Test system: MYC
# method summary: In vitro transcription-translation (IVTT) assay, MYC reporter
# Format: biochemical
# condition label: IVTT assay, HeLa S3 lysate, MYC reporter, normalized sfGFP/mCherry ratio; half-log dilutions 30 μM-0.1 μM, 2 hrs at 30° C.
pIC50: −log10 of the molar value.
quantity measured: pIC50

API: value(readout= pIC50, system= MYC, query= `O=C(NCC[C@H]1CCNC[C@H]1F)O[C@@H]1[C@@H](O)CN[C@@H]1Cc1ccc(-c2cnco2)cc1` )
> 5.00

API: value(readout= pIC50, system= MYC, query= `O=C(NCc1cccc(F)c1)O[C@@H]1[C@@H](O)CN[C@@H]1Cc1ccc(-n2ccnc2)cc1` )
> 5.00

API: value(readout= pIC50, system= MYC, query= `O=C(NCC[C@@H]1CCCN1)O[C@@H]1[C@@H](O)CN[C@@H]1Cc1ccc(-c2cnn(C(F)F)c2)cc1` )
> 5.00

API: value(readout= pIC50, system= MYC, query= `O=C(NCc1cccc(OC(F)F)c1)O[C@@H]1[C@@H](O)CN[C@@H]1Cc1ccc(-c2cnco2)cc1` )
> 5.00

API: value(readout= pIC50, system= MYC, query= `CNC1(c2cccc(CNC(=O)O[C@@H]3[C@@H](O)CN[C@@H]3Cc3ccc(-c4cnco4)cc3)c2)CC1` )
> 5.00

API: value(readout= pIC50, system= MYC, query= `O=C(NCc1cccc(F)c1)O[C@@H]1[C@@H](O)CN[C@@H]1Cc1ccc(-c2cn3ccnc3s2)cc1` )
> 5.00

API: value(readout= pIC50, system= MYC, query= `O=C(NCC[C@@H]1CCCN1)O[C@@H]1[C@@H](O)CN[C@@H]1Cc1ccc(-c2ccc(Cl)s2)cc1` )
> 5.00

API: value(readout= pIC50, system= MYC, query= `O=C(NCc1cccc(F)c1)O[C@@H]1[C@@H](O)CN[C@@H]1Cc1ccc(F)cc1` )
> 5.00

API: value(readout= pIC50, system= MYC, query= `O=C(NCc1cccc(-n2ccnc2)c1)O[C@@H]1[C@@H](O)CN[C@@H]1Cc1ccc(-c2cnco2)cc1` )
> 5.00

API: value(readout= pIC50, system= MYC, query= `O=C(NCc1cccc(F)c1)O[C@@H]1[C@@H](O)CN[C@@H]1Cc1ccc(-c2cnc(C(F)(F)F)s2)cc1` )
< 4.52

API: value(readout= pIC50, system= MYC, query= `O=C(NCc1cccc(F)c1)O[C@@H]1[C@@H](O)CN[C@@H]1Cc1ccc(Cl)cc1` )
> 5.00

API: value(readout= pIC50, system= MYC, query= `COc1ccc(C[C@H]2NC[C@H](O)[C@H]2OC(=O)NCc2ccc(C3(N)CC3)cc2)cc1` )
> 5.00

API: value(readout= pIC50, system= MYC, query= `O=C(NCc1ccc(OC(F)(F)F)cc1)O[C@@H]1[C@@H](O)CN[C@@H]1Cc1ccc(Cl)cc1` )
< 4.52

API: value(readout= pIC50, system= MYC, query= `O=C(NCc1cccc(F)c1)O[C@@H]1[C@@H](O)CN[C@@H]1Cc1ccc(-c2ncco2)cc1` )
> 5.00

API: value(readout= pIC50, system= MYC, query= `COc1ccc(C[C@H]2NC[C@H](O)[C@H]2OC(=O)NCc2ccc(Cn3cccn3)cc2)cc1` )
> 5.00

API: value(readout= pIC50, system= MYC, query= `O=C(NCC[C@@H]1C[C@H](F)CN1)O[C@@H]1[C@@H](O)CN[C@@H]1Cc1ccc(-c2cnco2)cc1` )
> 5.00

API: value(readout= pIC50, system= MYC, query= `O=C(NCc1cccc(F)c1)O[C@@H]1[C@@H](O)CN[C@@H]1Cc1ccc(-c2cc(C(F)F)cs2)cc1` )
> 5.00

API: value(readout= pIC50, system= MYC, query= `O=C(NCc1cnsc1)O[C@@H]1[C@@H](O)CN[C@@H]1Cc1ccc(-c2cnco2)cc1` )
> 5.00

API: value(readout= pIC50, system= MYC, query= `O=C(NCc1cccc(F)c1)O[C@@H]1[C@@H](O)CN[C@@H]1Cc1ccc(-c2cn3ccccc3n2)cc1` )
> 5.00

API: value(readout= pIC50, system= MYC, query= `COc1ccc(C[C@H]2NC[C@H](O)[C@H]2OC(=O)NCc2cc(N3CCCC3)nc(N3CCCC3)c2)cc1` )
< 4.52

API: value(readout= pIC50, system= MYC, query= `COc1ccc(C[C@H]2NC[C@H](O)[C@H]2OC(=O)NCc2ccnc(N3CCC3)n2)cc1` )
> 5.00

API: value(readout= pIC50, system= MYC, query= `COc1ccc(C[C@H]2NC[C@H](O)[C@H]2OC(=O)NCc2cnoc2)cc1` )
> 5.00

API: value(readout= pIC50, system= MYC, query= `COc1ccc(C[C@H]2NC[C@H](O)[C@H]2OC(=O)NCC[C@@H]2CCN2)cc1` )
> 5.00

API: value(readout= pIC50, system= MYC, query= `O=C(NCc1cccc(F)c1)O[C@@H]1[C@@H](O)CN[C@@H]1Cc1ccc(-c2cscn2)cc1` )
> 5.00

API: value(readout= pIC50, system= MYC, query= `COc1ccc(C[C@H]2NC[C@H](O)[C@H]2OC(=O)NCCC23CCCN2CCC3)cc1` )
4.70 to 5.00

API: value(readout= pIC50, system= MYC, query= `COc1ccc(C[C@H]2NC[C@H](O)[C@H]2OC(=O)NCC[C@@H]2CCCNC2)cc1` )
> 5.00

API: value(readout= pIC50, system= MYC, query= `O=C(NCC[C@H]1CCCN1)O[C@@H]1[C@@H](O)CN[C@@H]1Cc1ccc(-c2cnco2)cc1` )
> 5.00

API: value(readout= pIC50, system= MYC, query= `O=C(NCC[C@@H]1CCOC1)O[C@@H]1[C@@H](O)CN[C@@H]1Cc1ccc(-c2cncs2)cc1` )
> 5.00

API: value(readout= pIC50, system= MYC, query= `O=C(NCCc1cn[nH]c1)O[C@@H]1[C@@H](O)CN[C@@H]1Cc1ccc(-c2cncs2)cc1` )
> 5.00

API: value(readout= pIC50, system= MYC, query= `O=C(NCC[C@H]1CCCN1)O[C@@H]1[C@@H](O)CN[C@@H]1Cc1ccc(-c2ccc(C(F)(F)F)cc2)cc1` )
< 4.52

----------
# Test system: CCNTB1
# method summary: In vitro transcription-translation (IVTT) assay, CCNTB1 reporter
# Format: biochemical
# condition label: HeLa S3 lysate, 2 hrs at 30° C.
Exercise: for every item that follows, state its recorded IC50.

// IC50 lookup, key: `COc1ccc(C[C@H]2NC[C@H](O)[C@H]2OC(=O)NCCC(C)(C)O)cc1`
< 10 µM

// IC50 lookup, key: `O=C(NCC[C@@H]1CCCN1)O[C@@H]1[C@@H](O)CN[C@@H]1Cc1ccc(-c2ccc(S(F)(F)(F)(F)F)cc2)cc1`
> 30 µM

// IC50 lookup, key: `O=C(NCc1cccc(F)c1)O[C@@H]1[C@@H](O)CN[C@@H]1Cc1ccc(F)cc1`
< 10 µM

// IC50 lookup, key: `COc1ccc(C[C@H]2NC[C@H](O)[C@H]2OC(=O)NCc2c(F)cccc2F)cc1`
10 to 20 µM

Source of measurements: patent US20250129021A1
